biological target: human thrombin (Homo sapiens)
pIC50: −log10 of the molar value.
Consider the following compounds; for each one, report its pIC50.

Noted pIC50 for `CC(=N)N1CCC(CN(CCO)Cc2cc(C(=O)O)cc(-c3cccc(C(=N)N)c3)c2)CC1` , tested on human thrombin (Homo sapiens): 3.09

Noted pIC50 for `CC(=N)N1CCC(COCc2cc(CCC(=O)O)cc(-c3cccc(C(=N)N)c3)c2)CC1` , tested on human thrombin (Homo sapiens): < 3.00

Noted pIC50 for `CC(=N)N1CCC(COCc2cc(C(=O)O)cc(-c3cccc(C(=N)N)c3)c2)CC1` , tested on human thrombin (Homo sapiens): < 3.00

Noted pIC50 for `CC(=N)N1CCC(CN(C)Cc2cc(C(=O)O)cc(-c3cccc(C(=N)N)c3)c2)CC1` , tested on human thrombin (Homo sapiens): < 3.00

====

tested on: normal human plasma; assay: Determination of anticoagulation activity (APTT); format: biochemical; settings: concentration corresponding to 2-fold elongation of coagulation time
# cutoff 5 µM applies to APTT CT2; >= gives met, < gives not met

Threshold query (APTT CT2 >= 5 µM) on CC(=N)N1CCC(COCc2cc(C(=O)O)cc(-c3cccc(C(=N)N)c3)c2)CC1 [Example 61]
not met

Threshold query (APTT CT2 >= 5 µM) on CC(=N)N1CCC(COCc2cc(CCC(=O)O)cc(-c3cccc(C(=N)N)c3)c2)CC1 [Example 82]
not met

Threshold query (APTT CT2 >= 5 µM) on N=C(N)c1cccc(-c2cc(CNCC3CCN(CCO)CC3)cc(C(=O)O)c2)c1 [Example 72]
met

Threshold query (APTT CT2 >= 5 µM) on N=C(N)c1cccc(-c2cc(CNCC3CCCCC3)cc(C(=O)O)c2)c1 [Example 73]
met

Threshold query (APTT CT2 >= 5 µM) on CC(=N)N1CCC(CN(CCO)Cc2cc(C(=O)O)cc(-c3cccc(C(=N)N)c3)c2)CC1 [Example 81]
not met

Threshold query (APTT CT2 >= 5 µM) on CC(=N)N1CCC(CN(C)Cc2cc(C(=O)O)cc(-c3cccc(C(=N)N)c3)c2)CC1 [Example 74]
met

Threshold query (APTT CT2 >= 5 µM) on CC(=N)N1CCC(CNCc2cc(C(=O)O)cc(-c3cccc(C(=N)N)c3)c2)CC1 [Example 70]
not met

====

Consider the following compounds; for each one, report its IC50.

Noted IC50 for `CC(=N)N1CCC(CNCc2cc(C(=O)O)cc(-c3cccc(C(=N)N)c3)c2)CC1` , tested on human thrombin (Homo sapiens): > 1000 µM

Noted IC50 for `N=C(N)c1cccc(-c2cc(CNCC3CCN(CCO)CC3)cc(C(=O)O)c2)c1` , tested on human thrombin (Homo sapiens): > 1000 µM

Noted IC50 for `N=C(N)c1cccc(-c2cc(CNCC3CCCCC3)cc(C(=O)O)c2)c1` , tested on human thrombin (Homo sapiens): > 1000 µM

====

readout.name: IC50 (µM)
Write down the numeric answer in µM and omit the unit.

Noted IC50 for CC(=N)N1CCC(CN(C)Cc2cc(C(=O)O)cc(-c3cccc(C(=N)N)c3)c2)CC1 [Example 74] , tested on human acetylcholine esterase (Homo sapiens, UniProt P22303): 150

Noted IC50 for CC(=N)N1CCC(COCc2cc(C(=O)O)cc(-c3cccc(C(=N)N)c3)c2)CC1 [Example 61] , tested on human acetylcholine esterase (Homo sapiens, UniProt P22303): 49

Noted IC50 for CC(=N)N1CCC(CNCc2cc(C(=O)O)cc(-c3cccc(C(=N)N)c3)c2)CC1 [Example 70] , tested on human acetylcholine esterase (Homo sapiens, UniProt P22303): 140

Noted IC50 for CC(=N)N1CCC(COCc2cc(CCC(=O)O)cc(-c3cccc(C(=N)N)c3)c2)CC1 [Example 82] , tested on human acetylcholine esterase (Homo sapiens, UniProt P22303): 170

Noted IC50 for CC(=N)N1CCC(CN(CCO)Cc2cc(C(=O)O)cc(-c3cccc(C(=N)N)c3)c2)CC1 [Example 81] , tested on human acetylcholine esterase (Homo sapiens, UniProt P22303): 130
